Origin of values: ChEMBL document CHEMBL3352173

I'd be grateful if you could share measured pEC50 for these entries.
assayed_system: UniProt Q92887
Sequence (Q92887 whole entry): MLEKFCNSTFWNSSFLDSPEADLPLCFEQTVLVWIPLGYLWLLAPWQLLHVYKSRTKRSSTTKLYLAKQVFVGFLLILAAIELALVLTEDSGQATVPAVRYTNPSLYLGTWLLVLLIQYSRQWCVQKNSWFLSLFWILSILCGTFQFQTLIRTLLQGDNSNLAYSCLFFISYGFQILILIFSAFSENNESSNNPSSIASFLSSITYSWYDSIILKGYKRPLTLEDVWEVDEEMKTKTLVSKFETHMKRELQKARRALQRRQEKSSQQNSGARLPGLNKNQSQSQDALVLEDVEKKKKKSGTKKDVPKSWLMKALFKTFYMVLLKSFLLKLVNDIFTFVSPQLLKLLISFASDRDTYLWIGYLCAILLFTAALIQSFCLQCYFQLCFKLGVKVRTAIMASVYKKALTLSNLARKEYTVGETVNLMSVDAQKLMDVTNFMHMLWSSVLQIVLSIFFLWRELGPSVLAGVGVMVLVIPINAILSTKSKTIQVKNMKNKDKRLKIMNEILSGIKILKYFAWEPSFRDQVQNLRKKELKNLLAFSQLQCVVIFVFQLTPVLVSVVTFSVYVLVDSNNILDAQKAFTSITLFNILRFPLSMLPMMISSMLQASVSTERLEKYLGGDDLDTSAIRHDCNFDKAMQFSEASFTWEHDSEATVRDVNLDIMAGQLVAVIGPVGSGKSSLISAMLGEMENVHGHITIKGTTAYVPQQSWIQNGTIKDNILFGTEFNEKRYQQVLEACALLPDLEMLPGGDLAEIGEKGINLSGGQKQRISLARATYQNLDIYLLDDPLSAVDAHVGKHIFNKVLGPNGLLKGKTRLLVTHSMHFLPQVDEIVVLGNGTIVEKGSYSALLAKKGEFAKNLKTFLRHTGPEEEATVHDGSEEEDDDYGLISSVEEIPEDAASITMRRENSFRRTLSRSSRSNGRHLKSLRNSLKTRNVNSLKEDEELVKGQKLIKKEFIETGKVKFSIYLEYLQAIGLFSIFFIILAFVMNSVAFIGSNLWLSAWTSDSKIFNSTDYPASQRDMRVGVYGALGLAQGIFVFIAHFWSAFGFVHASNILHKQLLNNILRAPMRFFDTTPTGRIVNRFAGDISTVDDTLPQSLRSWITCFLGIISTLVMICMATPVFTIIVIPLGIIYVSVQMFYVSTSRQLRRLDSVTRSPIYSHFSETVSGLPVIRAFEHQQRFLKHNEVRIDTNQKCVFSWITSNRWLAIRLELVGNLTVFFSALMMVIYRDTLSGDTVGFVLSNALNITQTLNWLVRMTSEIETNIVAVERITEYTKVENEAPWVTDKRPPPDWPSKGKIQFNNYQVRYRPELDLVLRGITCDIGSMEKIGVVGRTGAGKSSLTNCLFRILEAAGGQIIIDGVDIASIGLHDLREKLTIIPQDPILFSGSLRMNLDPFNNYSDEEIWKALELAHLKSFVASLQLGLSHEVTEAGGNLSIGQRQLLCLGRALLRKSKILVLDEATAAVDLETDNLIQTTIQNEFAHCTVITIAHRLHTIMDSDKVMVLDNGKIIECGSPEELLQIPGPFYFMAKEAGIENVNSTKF
assay: Stimulation of ATPase activity of human MRP2 assessed as inorganic phosphate
pEC50: −log10 of the molar value.

COCCNC(=O)c1nc(N2CC[C@@H](NC(=O)c3[nH]c(C)c(Cl)c3Cl)[C@@H](OC)C2)sc1C(=O)O    < 3.70
COC[C@H](C)NC(=O)c1nc(N2CC[C@@H](NC(=O)c3[nH]c(C)c(Cl)c3Cl)[C@@H](OC)C2)sc1C(=O)O    < 3.70

Next:
Recorded pEC50 of COCC(COC)NC(=O)c1nc(N2CC[C@@H](NC(=O)c3[nH]c(C)c(Cl)c3Cl)[C@@H](OC)C2)sc1C(=O)O , please.
< 3.70

###

assay: Clearance in rat at 10 mg/kg, iv
Assay type: ADME, organism-based
Set-up: dose 10 mg/kg, route intravenous
stated_conditions: in vivo
measured_metric: log10 clearance (log10 of the value in L/h/kg)
Log10 applied to clearance; unit prior to transform: L/h/kg.

Sample answers from the record:
CO[C@H]1CN(c2nc(-c3cnccn3)c(C(=O)O)s2)CC[C@H]1NC(=O)c1[nH]c(C)c(Cl)c1Cl    -0.79
CO[C@H]1CN(c2nc(C(=O)O)cs2)CC[C@H]1NC(=O)c1[nH]c(C)c(Cl)c1Cl    0.47
CO[C@H]1CN(c2nc(-c3ccncn3)c(C(=O)O)s2)CC[C@H]1NC(=O)c1[nH]c(C)c(Cl)c1Cl    -0.64
CO[C@H]1CN(c2nc(C(C)=O)c(C(=O)O)s2)CC[C@H]1NC(=O)c1[nH]c(C)c(Cl)c1Cl    -0.25

Next up:
Which log10 clearance is reported for this molecule? CNC(=O)c1nc(N2CC[C@@H](NC(=O)c3[nH]c(C)c(Cl)c3Cl)[C@@H](OC)C2)sc1C(=O)O
-0.08

###

assayed_system: UniProt Q63120
Sequence (Q63120 whole entry): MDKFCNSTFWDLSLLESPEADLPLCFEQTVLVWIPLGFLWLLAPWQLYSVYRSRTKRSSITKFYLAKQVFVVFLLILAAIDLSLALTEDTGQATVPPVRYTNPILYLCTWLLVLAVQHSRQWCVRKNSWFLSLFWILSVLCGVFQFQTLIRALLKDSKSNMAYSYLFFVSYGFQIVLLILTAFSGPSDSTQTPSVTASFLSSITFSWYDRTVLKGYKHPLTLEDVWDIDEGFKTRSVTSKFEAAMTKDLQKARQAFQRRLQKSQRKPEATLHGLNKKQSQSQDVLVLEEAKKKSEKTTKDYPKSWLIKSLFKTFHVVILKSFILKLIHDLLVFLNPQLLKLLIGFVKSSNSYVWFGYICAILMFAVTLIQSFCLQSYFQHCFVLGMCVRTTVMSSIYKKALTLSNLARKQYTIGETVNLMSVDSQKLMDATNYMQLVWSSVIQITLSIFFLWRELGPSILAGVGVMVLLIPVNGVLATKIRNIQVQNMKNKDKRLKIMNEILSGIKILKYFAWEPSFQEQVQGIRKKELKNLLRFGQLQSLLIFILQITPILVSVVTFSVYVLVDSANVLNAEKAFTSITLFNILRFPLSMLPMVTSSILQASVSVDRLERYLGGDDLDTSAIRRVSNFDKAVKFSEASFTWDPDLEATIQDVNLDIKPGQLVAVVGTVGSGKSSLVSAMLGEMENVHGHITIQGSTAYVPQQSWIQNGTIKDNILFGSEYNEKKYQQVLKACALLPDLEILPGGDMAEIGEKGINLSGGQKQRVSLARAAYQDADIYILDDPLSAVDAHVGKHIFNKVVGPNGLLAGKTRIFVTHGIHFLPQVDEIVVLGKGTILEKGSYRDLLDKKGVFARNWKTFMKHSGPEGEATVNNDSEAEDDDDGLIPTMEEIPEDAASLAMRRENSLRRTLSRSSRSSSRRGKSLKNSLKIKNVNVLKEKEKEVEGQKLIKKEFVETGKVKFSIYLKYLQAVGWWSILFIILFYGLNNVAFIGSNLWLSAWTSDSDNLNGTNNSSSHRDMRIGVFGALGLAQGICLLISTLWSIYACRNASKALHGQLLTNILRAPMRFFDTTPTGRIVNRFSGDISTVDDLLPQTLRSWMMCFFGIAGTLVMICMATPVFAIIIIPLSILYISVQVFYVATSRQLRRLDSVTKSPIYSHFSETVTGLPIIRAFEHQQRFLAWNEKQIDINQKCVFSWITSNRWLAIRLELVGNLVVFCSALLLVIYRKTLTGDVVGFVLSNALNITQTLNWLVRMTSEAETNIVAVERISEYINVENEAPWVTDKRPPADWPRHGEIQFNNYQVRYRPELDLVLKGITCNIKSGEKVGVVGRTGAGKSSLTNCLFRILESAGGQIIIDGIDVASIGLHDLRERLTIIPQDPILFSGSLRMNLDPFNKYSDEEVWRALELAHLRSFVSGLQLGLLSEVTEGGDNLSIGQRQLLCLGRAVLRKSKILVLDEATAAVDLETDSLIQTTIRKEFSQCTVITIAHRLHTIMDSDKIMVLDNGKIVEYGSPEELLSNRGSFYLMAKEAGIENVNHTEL
assay: Stimulation of ATPase activity of rat Mrp2 assessed as inorganic phosphate
pEC50: −log10 of the molar value.
For each entry below, report its pEC50 value.

These recorded examples may help you get a feel for the data.
COCC(COC)NC(=O)c1nc(N2CC[C@@H](NC(=O)c3[nH]c(C)c(Cl)c3Cl)[C@@H](OC)C2)sc1C(=O)O    < 3.70
COC[C@H](C)NC(=O)c1nc(N2CC[C@@H](NC(=O)c3[nH]c(C)c(Cl)c3Cl)[C@@H](OC)C2)sc1C(=O)O    < 3.70

With those in mind, consider the next molecule.
Reported pEC50 for COCCNC(=O)c1nc(N2CC[C@@H](NC(=O)c3[nH]c(C)c(Cl)c3Cl)[C@@H](OC)C2)sc1C(=O)O : what is it?
< 3.70

###

Tested on: Staphylococcus aureus
assay: Antimicrobial activity against methicillin, quinolone-resistant Staphylococcus aureus by broth microdilution/CLSI method
Assay type: functional
stated_conditions: Staphylococcus aureus; read-out: MIC
measured_metric: MIC (µg/mL)
Numbers only, in µg/mL.

CNC(=O)c1nc(N2CC[C@@H](NC(=O)c3[nH]c(C)c(Cl)c3Cl)[C@@H](OC)C2)sc1C(=O)O    0.063

Would you mind giving MIC for every compound in the list below?
1. CNC(=O)c1sc(N2CC[C@@H](NC(=O)c3[nH]c(C)c(Cl)c3Cl)[C@@H](OC)C2)nc1C(=O)O
2. Cc1[nH]c(C(=O)N[C@@H]2CCN(c3ncc(C(=O)O)s3)C[C@@H]2N=[N+]=[N-])c(Cl)c1Cl (racemic)
3. COCCNC(=O)c1nc(N2CC[C@@H](NC(=O)c3[nH]c(C)c(Cl)c3Cl)[C@@H](OC)C2)sc1C(=O)O
4. COCC(COC)(COC)NC(=O)c1nc(N2CC[C@@H](NC(=O)c3[nH]c(C)c(Cl)c3Cl)[C@@H](OC)C2)sc1C(=O)O

[2, 0.25, 0.089, 0.031]

Give MIC for all compounds that follow.
1. CO[C@H]1CN(c2nc(-c3cn(C)cn3)c(C(=O)O)s2)CC[C@H]1NC(=O)c1[nH]c(C)c(Cl)c1Cl
2. CO[C@H]1CN(c2nc(C)c(C(=O)O)s2)CC[C@H]1NC(=O)c1[nH]c(C)c(Cl)c1Cl
3. COCC(COC)NC(=O)c1nc(N2CC[C@@H](NC(=O)c3[nH]c(C)c(Cl)c3Cl)[C@@H](OC)C2)sc1C(=O)O
4. Cc1[nH]c(C(=O)N[C@@H]2CCN(c3ncc(C(=O)O)s3)CC23OCC2(CC2)CO3)c(Cl)c1Cl
5. CO[C@H]1CN(c2nc(C(N)=O)c(C(=O)O)s2)CC[C@H]1NC(=O)c1[nH]c(C)c(Cl)c1Cl
6. CO[C@H]1CN(c2nc(-c3ncc[nH]3)c(C(=O)O)s2)CC[C@H]1NC(=O)c1[nH]c(C)c(Cl)c1Cl

1. 0.13
2. 0.053
3. 0.049
4. 0.5
5. 0.5
6. 1
